B1: Twister Ribozyme (parent)
chain: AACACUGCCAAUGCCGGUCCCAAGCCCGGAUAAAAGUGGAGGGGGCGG

variants of: B1; assay: self-cleavage, relative activity (ratio to wild type); higher = more cleavage; co-transcriptional
MEASUREMENT_TYPE: self-cleavage

MUTANT_LABEL	self-cleavage
A11U A40C	0.161
A10U G16A	0.89
C8G A33G	0.232
G17C C21U	0.0868
A34G A35C	0.742

Items follow; give self-cleavage for each.
1. G7C G24U
2. U6G C9A
3. A22G G47A
4. C26G G28C
5. C26G G47C
6. C21G G38U

## Output
0.0628
0.279
0.184
0.142
0.145
0.0824

Measured values drawn from the RNAGym collection of RNA variant scans (doi:10.7554/elife.80360) for this set.
